Assay: Cmax in Sprague-Dawley rat at 1 mg/kg, po
Assay type: ADME, organism-based
Design: dose 1 mg/kg, route oral
Settings: in vivo
property-measured: Cmax (ng/mL)

[[record]]
mol_smiles = "O[C@@H]1[C@@H](O)[C@H](n2cc(Cc3ccc(C4CC4)cc3)c3c(Cl)cccc32)OC[C@H]1O"
property_measured = "Cmax"
units_label = "ng/mL"
observed = 1630


====

Assay: AUC (0 to infinity) in Sprague-Dawley rat at 1 mg/kg, po
Format: ADME, organism-based
Design: time infinity, dose 1 mg/kg, route oral
Conditions: plasma
property-measured: AUC(0-inf) (ng·h/mL)

[[record]]
mol_smiles = "O[C@@H]1[C@@H](O)[C@H](n2cc(Cc3ccc(C4CC4)cc3)c3c(Cl)cccc32)OC[C@H]1O"
property_measured = "AUC(0-inf)"
observed = 8370


====

Experiment: Clearance in Sprague-Dawley rat at 1 mg/kg, iv
Type: ADME, organism-based
Parameters: dose 1 mg/kg, route intravenous
Settings: in vivo
property-measured: clearance (mL/min/kg)

[[record]]
mol_smiles = "O[C@@H]1[C@@H](O)[C@H](n2cc(Cc3ccc(C4CC4)cc3)c3c(Cl)cccc32)OC[C@H]1O"
property_measured = "clearance"
observed = 1.2


====

Assay: Half life in Sprague-Dawley rat at 1 mg/kg, po
Assay type: ADME, organism-based
Parameters: dose 1 mg/kg, route oral
Conditions: in vivo
property-measured: half-life (min)

[[record]]
mol_smiles = "O[C@@H]1[C@@H](O)[C@H](n2cc(Cc3ccc(C4CC4)cc3)c3c(Cl)cccc32)OC[C@H]1O"
observed = 246


====

Experiment: Tmax in Sprague-Dawley rat at 1 mg/kg, po
Type: ADME, organism-based
Design: dose 1 mg/kg, route oral
Conditions: in vivo
property-measured: Tmax (h)

[[record]]
mol_smiles = "O[C@@H]1[C@@H](O)[C@H](n2cc(Cc3ccc(C4CC4)cc3)c3c(Cl)cccc32)OC[C@H]1O"
observed = 2


====

Test: Volume of distribution at steady state in Sprague-Dawley rat at 1 mg/kg, iv
Assay type: ADME, organism-based
Set-up: dose 1 mg/kg, route intravenous
Conditions: in vivo, read-out: Vdss
property-measured: Vd (L/kg)

[[record]]
mol_smiles = "O[C@@H]1[C@@H](O)[C@H](n2cc(Cc3ccc(C4CC4)cc3)c3c(Cl)cccc32)OC[C@H]1O"
observed = 0.32

